- System: K4 kissing-loop RNA reporter;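 note: bound reporter read as fluorescence of individual clusters on recovered sequencing chips by microscopy, with normalized cluster intensities fitted with a binding model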
- Test method notes: apparent KD of K4 kissing-loop reporter; higher = weaker reporter binding
- Stated conditions: Eterna round: R107; input ligand: FMN 200 uM
Measured apparent KD of K4 kissing-loop reporter values are reported for all entries that follow.
Answer by giving the amount and then stating its unit.

Answered examples (6):
AAUGUACAGGGAAGGAGCGUAGUCCAGUGAUGUUGGAAUUAAAUACCAGUGAUGUUGGUUAUACAGGUAGGUCGCCCUAAAGUGC [KL-XARG-B20] ... 0.0863 µM
UGGCGGACGAUCCGGAGUGAUGUUCCGGAUACCAGCAGAAGAGCCUGCCCUUGGCAGCCGUACGACGCUGGGAGAGUCCGGCGUC [Soteina] ... 0.0838 µM
ACACUUACACAUGAUACCAGAAUUCUACCGUAAAUAGUAAGUGAUGUUUGCUAACGGCUUUUCCCUUGGCAGCAUGAUCGGUAUU [theeternabot_sameState_KL_Theo_B_43] ... 0.201 µM
AACUGUCAAGGACAACAUUACUGCAGUGAUACCAGCAUCGAAAGAUGCCCUUGGCAGCACUAACUUGCAGUGAUGUUGCAAGUAA [BrourdMod 4 - Jieux - Exclusion - Theophylline A] ... 0.313 µM
UUAAUUAAGACGGCCGCCACUGAAUUAGAGUGAUGUUCUAAAAUUACUAAAUUAAAUUUAUUCAACAGGACCGGGUCAAUUAUUA [JR_SSTryptoB_Sub009] ... 0.516 µM
GUAUGUGGAAACACGUACUUAUAUCCUAGGCAGGAUAUGCGGAAACGCAGAAGGGCCACCGGCGAGUUUAUCCAGUGAUGUUGGA [Ex FMN A 8] ... 0.251 µM

[Q] Which apparent KD of K4 kissing-loop reporter value belongs to CUUGUACAUGCCGAGGUAGGUGCGGGUUAGCGAGGACCGGUACGGCCGCCACUCGCCAAGUGAUGUUUGGUCCUUUGGAUCGGCA ?
[A] 1.22 µM

[Q] What would you report for AAGUCAUAGGCAGGAUAUGCAUAGUAAUAAGGCCAUAUAUACGUAUAGAGUGAUGUUUUGUACCAGGCAGAAGGGCUACAUCAGU [FMN B Excl V7 (+3A)] ?
[A] 0.55 µM

[Q] What would you report for GACGUGCGAGAGACCGCUCUACCUUGAGAUCGAGGACCGGUACGGCCGCCACUCGGUGUUUAACGUCGAUCCCAGUGAUGUUGGA [theeternabot_sameState_KL_Trp_A_21] ?
[A] 0.521 µM

====

- Test system: MS2 coat protein
- Test method notes: apparent KD of MS2 coat protein; higher = weaker reporter binding
- Stated conditions: Eterna round: R107; input ligand: theophylline 20 uM
Kind request: treat 0.03 µM as inclusive, so apparent KD of MS2 coat protein at 0.03 µM or higher is Fulfilled, anything lower is Not fulfilled.

Examples from the recorded data:
ACAUGAGGAUCACCCAUGUUCCUCAUUGAUACCAGUGAAUUUAGACGCCCUUGGCAGCGAGUUUUUUUAUAAGAUUUUUUUUUUU [6.I] ... Fulfilled
UGAUUGAACGGAAGGAGCGUGAAGAGAGAGAAACAUGAGGAUCACCCAUGUAGAGAGAGAUCACAGGUAGGUCGCCGAGAGAUUG [11.C] ... Not fulfilled
CGAGUAAGUUCAAUCGAAUAACGGUUUUCGCGAGGACCGGUACGGCCGCCACUCGUGUGAUAUCACACAUGAGGAUCACCCAUGU [3'end-1] ... Fulfilled

[Q] In plain terms: is recorded apparent KD of MS2 coat protein at least 0.03 µM for AUUCAUGGAAACAUGACAUACAUAUCCGGUCGAGGACCGGUACGGCCGCCACUCGUUUGGAGGCACAUGAGGAUCACCCAUGUUA [SS Tryp A #8] ?
[A] Fulfilled

[Q] What would you report for AGACAUGAGGAUCACCCAUGUGAAGUGGAUACCAGCCGCAGCGAUGGCCCUUGGCAGCCAGCUUUGUGUCGAUACAUCCGCACUU [theeternabot_exclusion_MS2_Theo_A_2] ?
[A] Not fulfilled

[Q] What would you report for GAGUACACUACGGCCGCCACUCAAGGAGCUACAUAGCUCCUAGACAUGAGGAUCACCCAUGUACCGAGGACCGGGUAGAUCCUUA [Same State Typrtophan B GF2] ?
[A] Fulfilled

[Q] What would you report for GGAUAGGACACGGCCGCCACUAGCUAGGAUACUAGCAACAUUUGGGUACAUGAGGAUCACCCAUGUAGGACCGGGUGUCCUAUCG ?
[A] Fulfilled
